system: VchCAST RNA-guided transposition machinery (E. coli BL21(DE3) host, lacZ target); assay: relative integration efficiency (T-RL orientation) vs wild-type transposon end (log2 (normalized fold change)); transposon end mutated: right end (5 bp flank + 75 bp right end); higher = more efficient transposition
Threshold check on relative integration efficiency (log2): at or above -3 gives TRUE, strictly below gives FALSE.

sequenceChain	assignedCategory
ACATTTGTTGATACAACCATAAAATGATAATTACACCCATAAATTGATAATTCGCACACCCATAAATTGATATTGCCTCTGATCATAGTCAGACCAACATTGCTACGACCCGTATTCGCACCGACAC	TRUE
ACATTTGTTGATACAACCATAAAATGATAATTAGTGGGTATTTAACTATTAATTCACACCCATAAATTGATATTGCCTCTGATCATAGTCAGACCAACATTGCTACGACCCGTATTCGCACCGACAC	FALSE
ACATTTGTTGATACAACCATAAAATCATCATTACCCCCATAAATTGATAATTATCCCACCCAATTTAACTATAACGCTCTGATCATAGTCAGACCAACATTGCTACGACCCGTATTCGCACCGACAC	FALSE
ACATTTGTTGATACAACCATAAAATGATAATTAATAATTATTTATAATCAGCAACCACCCATAAATTGATAATTATCAACAAACGCCCGGTCGCGGTACTCTGATCATAGTCAGACCAACATTGCTA	TRUE
ACATTTGTTGATACAACCATAAAGTGATATTTACAACCATAAAGTGATATTTATCACAACCATAAAGTGATATTTACTCTGATCATAGTCAGACCAACATTGCTACGACCCGTATTCGCACCGACAC	TRUE
ACATTTGTTGATACCACCATCAAATGGTAATTCCACCCATAAATTGATAATTATCACACCCAATTTAACTATAACGCTCTGATCATAGTCAGACCAACATTGCTACGACCCGTATTCGCACCGACAC	FALSE
ACATTGGTGGATACAACCATAAAATGATAATTACACCCATAAATTGATAATTATCACACCCAATTTAACTATAACGCTCTGATCATAGTCAGACCAACATTGCTACGACCCGTATTCGCACCGACAC	FALSE
ACATTTGTTGATACAACCATATATTGATATCTCCACCCATAAATTGATATTGCTCACACCCATAAATTGATATTGCCTCTGATCATAGTCAGACCAACATTGCTACGACCCGTATTCGCACCGACAC	TRUE
ACATTTGTTGATACAACCATAAAATGATAATTAATAATTATTTATAATCAGCAACTTAACCACAAAACACCCATAAATTGATAATTATCACACCCATAAATTGATATTGCCTCTGATCATAGTCAGA	FALSE
ACATTTGTTGATACAACCATAAAAGGATAATTACCCCCATCAATTGATAATTATCACACCCCATTTAACTATAACGCTCTGATCATAGTCAGACCAACATTGCTACGACCCGTATTCGCACCGACAC	FALSE

---

system: VchCAST RNA-guided transposition machinery (E. coli BL21(DE3) host, lacZ target); test: relative integration efficiency (T-RL orientation) vs wild-type transposon end (log2 (normalized fold change)); transposon end mutated: right end (5 bp flank + 75 bp right end); higher = more efficient transposition
Threshold check on relative integration efficiency (log2): at or above -1 gives true (1), strictly below gives false (0).

sequenceChain	testTarget	assignedCategory
ACATTTGTTGATACAACCATAAAATGATAATTCCACCCCTACATTGATAATTATCACACCCAATTTAACTATAACGCTCTGATCATAGTCAGACCAACATTGCTACGACCCGTATTCGCACCGACAC	VchCAST RNA-guided transposition machinery (E. coli BL21(DE3) host, lacZ target)	false (0)
ACATTTGTGGATACAACCCTAAAATGATAATTACACCCATAAATGGATAATTATCACCCCCAATTTAACTATAACGCTCTGATCATAGTCAGACCAACATTGCTACGACCCGTATTCGCACCGACAC	VchCAST RNA-guided transposition machinery (E. coli BL21(DE3) host, lacZ target)	false (0)
ACATTTGTTCATACAACCCTAAAATGATAATTACACCCATAAATTGATAATTATCACACCCAATTTAACTATAACGCTCTGATCATAGTCAGACCAACATTGCTACGACCCGTATTCGCACCGACAC	VchCAST RNA-guided transposition machinery (E. coli BL21(DE3) host, lacZ target)	false (0)
ACATTTGTTGATACAACCATAAAATGATAATTACACCCATAAATTGATAATCACACCCATAAATTGATATTGCCTCTGATCATAGTCAGACCAACATTGCTACGACCCGTATTCGCACCGACACTGA	VchCAST RNA-guided transposition machinery (E. coli BL21(DE3) host, lacZ target)	false (0)
ACATTTGTTGATACAACCTAAAAATGATAATTACACCCATAAATTGATAATTATCACACCCATAAATTGATATTGCCTCTGATCATAGTCAGACCAACATTGCTACGACCCGTATTCGCACCGACAC	VchCAST RNA-guided transposition machinery (E. coli BL21(DE3) host, lacZ target)	true (1)
ACATTTGTTGATAACACCATAAAATGATAATTACACCCATAAATTGATAATTATCACACCCATAAATTGATATTGCCTCTGATCATAGTCAGACCAACATTGCTACGACCCGTATTCGCACCGACAC	VchCAST RNA-guided transposition machinery (E. coli BL21(DE3) host, lacZ target)	true (1)
ACATTAGTTCATACAACCATAAAATGATAATTACACCCATAAATTGATAATTATCACACCCAATTTAACTATAACGCTCTGATCATAGTCAGACCAACATTGCTACGACCCGTATTCGCACCGACAC	VchCAST RNA-guided transposition machinery (E. coli BL21(DE3) host, lacZ target)	false (0)
CAAAATGTTGATAAAACCATACGTTGATTTTACGAAACCATACGCTGAAATAAAAACAACCATACCTTGAAATTGCTTATAAAGTGTACAACACTTGAGAAAGTTTACTACAGGTATGCACCGACAC	VchCAST RNA-guided transposition machinery (E. coli BL21(DE3) host, lacZ target)	false (0)
ACATTTGTGGATCCAACCATAAAATGATAATTACACCCATAAATGGATAATTATCACACCCAATTTAACTATAACGCTCTGATCATAGTCAGACCAACATTGCTACGACCCGTATTCGCACCGACAC	VchCAST RNA-guided transposition machinery (E. coli BL21(DE3) host, lacZ target)	false (0)
ACATTTGTTGATACAACCATAAAATGATAATTACACCCATAAATTGATAATTATCACACCCATAAATTGATATTGCCTCAACCATAAAATGATAATTACTGATCATAGTCAGACCAAGCACCGACAC	VchCAST RNA-guided transposition machinery (E. coli BL21(DE3) host, lacZ target)	true (1)
